Target: UniProt:P41145
Experiment: κ-opioid receptor [35S]GTPγS functional assay, U-2 OS cells (Table 5)
Type: biochemical
Settings: κ GTP
observed.property: pEC50
// field semantics: pEC50 = negative decimal log of concentration (mol/L)

// query Look up and report measured pEC50 (UniProt:P41145) for the following compound: O=C(NCc1ccc(O)cc1O)[C@@H]1C[C@]23CCN(CC4CC4)[C@H](Cc4ccc(O)cc42)[C@]3(O)C1 [Compound 41]
// result 8.99

// query Look up and report measured pEC50 (UniProt:P41145) for the following compound: CN1CC[C@]23C[C@H](C(N)=O)C[C@@]2(O)[C@H]1Cc1ccc(O)cc13 [Compound 78]
// result 6.01

// query Look up and report measured pEC50 (UniProt:P41145) for the following compound: O=C(NCc1ccc(Cl)cc1Cl)[C@H]1C[C@]23CCN(CC4CC4)[C@H](Cc4ccc(O)cc42)[C@]3(O)C1 [Compound 45]
// result 10.74

// query Look up and report measured pEC50 (UniProt:P41145) for the following compound: O=C(NCc1ccc(Cl)cc1Cl)[C@@H]1C[C@]23CCN(CC4CC4)[C@H](Cc4ccc(O)cc42)[C@]3(O)C1 [Compound 44]
// result 9.59

// query Look up and report measured pEC50 (UniProt:P41145) for the following compound: CN(CC(=O)O)C(=O)[C@@H]1C[C@]23CCN(CC4CC4)[C@H](Cc4ccc(O)cc42)[C@]3(O)C1 [Compound 66]
// result 6.77

// query Look up and report measured pEC50 (UniProt:P41145) for the following compound: O=C(NCCc1ccccc1)[C@@H]1C[C@]23CCN(CC4CC4)[C@H](Cc4ccc(O)cc42)[C@]3(O)C1 [Compound 50]
// result 8.71

====

Target: UniProt:P35372
Experiment: μ-opioid receptor [35S]GTPγS functional assay, U-2 OS cells (Table 5)
Type: biochemical
Settings: μ GTP
observed.property: pEC50
// field semantics: pEC50 = negative decimal log of concentration (mol/L)

// query Please indicate pEC50 recorded for O=C(NCc1ccc(O)cc1O)[C@H]1C[C@]23CCN(CC4CC4)[C@H](Cc4ccc(O)cc42)[C@]3(O)C1
// result 8.88

// query Please indicate pEC50 recorded for N[C@@H]1CC23CCN(CC4CC4)[C@H](Cc4ccc(O)cc42)[C@]3(O)C1 (stereo in doubt)
// result 6.96

// query Please indicate pEC50 recorded for O=C(NCc1ccc(Cl)c(Cl)c1)[C@@H]1C[C@]23CCN(CC4CC4)[C@H](Cc4ccc(O)cc42)[C@]3(O)C1
// result 9.04

// query Please indicate pEC50 recorded for Cc1ccc(CNC(=O)[C@H]2C[C@]34CCN(CC5CC5)[C@H](Cc5ccc(O)cc53)[C@]4(O)C2)cc1
// result 9.60

// query Please indicate pEC50 recorded for COc1ccc2c(c1)[C@]13CCN(CC4CC4)[C@H](C2)[C@]1(O)C[C@H](C(=O)N1CCCC1)C3
// result 5.53

// query Please indicate pEC50 recorded for N[C@H]1CC23CCN(CC4CC4)[C@H](Cc4ccc(O)cc42)[C@]3(O)C1 (stereo in doubt)
// result 8.11

====

Provide the reported pEC50 of each item.
Biological target: κ-opioid receptor (Homo sapiens (Human), UniProt P41145)
Assay: κ-opioid receptor [35S]GTPγS functional assay, U-2 OS cells (Table 5)
Assay type: biochemical
Settings: κ GTP
// field semantics: pEC50 = negative decimal log of concentration (mol/L)

// query Please indicate pEC50 recorded for NC(=O)[C@@H]1C[C@]23CCN(CC4CC4)[C@H](Cc4ccc(O)cc42)[C@]3(O)C1
// result 8.58

// query Please indicate pEC50 recorded for O=C([C@@H]1C[C@]23CCN(CC4CC4)[C@H](Cc4ccc(O)cc42)[C@]3(O)C1)N1CCOCC1
// result 7.61

// query Please indicate pEC50 recorded for O=C(NCc1ccc(O)cc1O)[C@H]1C[C@]23CCN(CC4CC4)[C@H](Cc4ccc(O)cc42)[C@]3(O)C1
// result 8.90

====

Provide the reported Emax of each item.
Target: μ-opioid receptor (Homo sapiens (Human), UniProt P35372)
Assay: μ-opioid receptor [35S]GTPγS functional assay, HEK-293 or CHO cells (Table 4)
Format: biochemical
Settings: relative to DAMGO
Report the value in % with no unit label.

// query Look up and report measured Emax (μ-opioid receptor (Homo sapiens (Human), UniProt P35372)) for the following molecule: NC(=O)[C@@H]1C[C@]23CCN(CC4CC4)[C@H](Cc4ccc(O)cc42)[C@]3(O)C1
// result 1

// query Look up and report measured Emax (μ-opioid receptor (Homo sapiens (Human), UniProt P35372)) for the following molecule: Oc1ccc2c(c1)C13CCN(CC4CC4)[C@H](C2)[C@]1(O)C[C@H](NCc1ccccc1)C3 (stereo in doubt)
// result 1

// query Look up and report measured Emax (μ-opioid receptor (Homo sapiens (Human), UniProt P35372)) for the following molecule: O=C(NCc1ccc(Cl)c(Cl)c1)[C@H]1C[C@]23CCN(CC4CC4)[C@H](Cc4ccc(O)cc42)[C@]3(O)C1
// result 86

// query Look up and report measured Emax (μ-opioid receptor (Homo sapiens (Human), UniProt P35372)) for the following molecule: O=C(NCc1cccnc1)[C@H]1C[C@]23CCN(CC4CC4)[C@H](Cc4ccc(O)cc42)[C@]3(O)C1
// result -1

====

Molecular target: μ-opioid receptor (Homo sapiens (Human), UniProt P35372)
Assay: μ-opioid receptor [35S]GTPγS functional assay, HEK-293 or CHO cells (Table 4)
Type: biochemical
Details: relative to DAMGO
observed.property: Emax (%)
Report the value in % with no unit label.

// query Look up and report measured Emax (μ-opioid receptor (Homo sapiens (Human), UniProt P35372)) for the following molecule: CN1CC[C@]23C[C@@H](C(N)=O)C[C@@]2(O)[C@H]1Cc1ccc(O)cc13 [Compound 77]
// result 19.6

// query Look up and report measured Emax (μ-opioid receptor (Homo sapiens (Human), UniProt P35372)) for the following molecule: O=C(NCc1ccc(F)cc1)[C@@H]1C[C@]23CCN(CC4CC4)[C@H](Cc4ccc(O)cc42)[C@]3(O)C1 [Compound 48]
// result -1

// query Look up and report measured Emax (μ-opioid receptor (Homo sapiens (Human), UniProt P35372)) for the following molecule: O=C(N[C@@H]1CC23CCN(CC4CC4)[C@H](Cc4ccc(O)cc42)[C@]3(O)C1)c1ccccc1 (stereo in doubt) [Compound 82]
// result 1

====

Biological target: μ-opioid receptor (Homo sapiens (Human))
Experiment: μ-opioid receptor [35S]GTPγS functional assay, HEK-293 cells (Table 6)
Assay type: biochemical
Settings: relative to DAMGO
observed.property: Emax (%)
Report the value in % with no unit label.

// query Please indicate Emax recorded for O=C(NCc1cccc(O)c1)[C@@H]1C[C@]23CCN(CC4CC4)[C@H](Cc4ccc(O)cc42)[C@]3(O)C1
// result 0

// query Please indicate Emax recorded for CN(C)CCN(C)C(=O)[C@@H]1C[C@]23CCN(C)[C@H](Cc4ccc(O)cc42)[C@]3(O)C1
// result -1

// query Please indicate Emax recorded for CN1CC[C@]23C[C@@H](NC(=O)c4ccccc4)C[C@@]2(O)[C@H]1Cc1ccc(O)cc13
// result 35.2

// query Please indicate Emax recorded for O=C(NCc1cc(Cl)cc(Cl)c1)[C@@H]1C[C@]23CCN(CC4CC4)[C@H](Cc4ccc(O)cc42)[C@]3(O)C1
// result -1

// query Please indicate Emax recorded for O=C(NCc1ccc(F)c(F)c1)[C@@H]1C[C@]23CCN(CC4CC4)[C@H](Cc4ccc(O)cc42)[C@]3(O)C1
// result -1

// query Please indicate Emax recorded for O=C(NCc1ccc(F)cc1F)[C@H]1C[C@]23CCN(CC4CC4)[C@H](Cc4ccc(O)cc42)[C@]3(O)C1
// result 28.3

// query Please indicate Emax recorded for CN1CC[C@]23C[C@@H](C(=O)N4CCOCC4)C[C@@]2(O)[C@H]1Cc1ccc(O)cc13
// result 35.1

// query Please indicate Emax recorded for Cc1ccc(CNC(=O)[C@H]2C[C@]34CCN(CC5CC5)[C@H](Cc5ccc(O)cc53)[C@]4(O)C2)cc1Cl
// result 55.5

// query Please indicate Emax recorded for CN1CC[C@]23C[C@H](C(=O)NCCO)C[C@@]2(O)[C@H]1Cc1ccc(O)cc13
// result 35

// query Please indicate Emax recorded for NC(=O)c1ccc2c(c1)[C@]13CCN(CC4CC4)[C@H](C2)[C@]1(O)C[C@H](C(=O)NCCN1CCOCC1)C3
// result 13.2

====

Biological target: κ-opioid receptor (Homo sapiens (Human), UniProt P41145)
Experiment: κ-opioid receptor [35S]GTPγS functional assay, U-2 OS cells (Table 5)
Type: biochemical
Settings: relative to U69,593
Provide the reported Emax of each item.
Report the value in % with no unit label.

// query Please indicate Emax recorded for CC(C)CNC(=O)[C@H]1C[C@]23CCN(CC4CC4)[C@H](Cc4ccc(O)cc42)[C@]3(O)C1
// result 108

// query Please indicate Emax recorded for NC(=O)[C@@H]1C[C@]23CCN(CC4CC4)[C@H](Cc4ccc(O)cc42)[C@]3(O)C1
// result 87.5

// query Please indicate Emax recorded for O=C(NCc1ccc(Cl)cc1Cl)[C@@H]1C[C@]23CCN(CC4CC4)[C@H](Cc4ccc(O)cc42)[C@]3(O)C1
// result 94.7

// query Please indicate Emax recorded for O=C(NCc1ccc(F)cc1)[C@@H]1C[C@]23CCN(CC4CC4)[C@H](Cc4ccc(O)cc42)[C@]3(O)C1
// result 106

// query Please indicate Emax recorded for Cc1ccc(CNC(=O)[C@H]2C[C@]34CCN(CC5CC5)[C@H](Cc5ccc(O)cc53)[C@]4(O)C2)cc1
// result 105

// query Please indicate Emax recorded for CN(CC(=O)O)C(=O)[C@@H]1C[C@]23CCN(CC4CC4)[C@H](Cc4ccc(O)cc42)[C@]3(O)C1
// result 77.3

// query Please indicate Emax recorded for Cc1ccc(CNC(=O)[C@@H]2C[C@]34CCN(CC5CC5)[C@H](Cc5ccc(O)cc53)[C@]4(O)C2)cc1
// result 105

// query Please indicate Emax recorded for COc1ccc2c(c1)[C@]13CCN(CC4CC4)[C@H](C2)[C@]1(O)C[C@@H](C(=O)O)C3
// result 79.7

// query Please indicate Emax recorded for NC(=O)[C@@H]1C[C@]23CCN(CC(F)(F)F)[C@H](Cc4ccc(O)cc42)[C@]3(O)C1
// result 69

// query Please indicate Emax recorded for N[C@@H]1CC23CCN(CC4CC4)[C@H](Cc4ccc(O)cc42)[C@]3(O)C1 (stereo in doubt)
// result 101

// query Please indicate Emax recorded for NC(=O)CNC(=O)[C@@H]1C[C@]23CCN(CC4CC4)[C@H](Cc4ccc(O)cc42)[C@]3(O)C1
// result 101

// query Please indicate Emax recorded for CN1CC[C@]23C[C@@H](C(N)=O)C[C@@]2(O)[C@H]1Cc1ccc(O)cc13
// result 65.3

// query Please indicate Emax recorded for COc1ccc2c(c1)[C@]13CCN(CC4CC4)[C@H](C2)[C@]1(O)C[C@@H](C(=O)N1CCCC1)C3
// result 87.7

// query Please indicate Emax recorded for O=C([C@H]1C[C@]23CCN(CC4CC4)[C@H](Cc4ccc(O)cc42)[C@]3(O)C1)N1CCCCC1
// result 90.3

// query Please indicate Emax recorded for CCN(CC)C(=O)[C@@H]1C[C@]23CCN(CC4CC4)[C@H](Cc4ccc(O)cc42)[C@]3(O)C1
// result 105

// query Please indicate Emax recorded for O=C(NCc1ccc(Cl)c(Cl)c1)[C@@H]1C[C@]23CCN(CC4CC4)[C@H](Cc4ccc(O)cc42)[C@]3(O)C1
// result 106

// query Please indicate Emax recorded for O=C(NCc1ccc(O)cc1O)[C@H]1C[C@]23CCN(CC4CC4)[C@H](Cc4ccc(O)cc42)[C@]3(O)C1
// result 87.7

// query Please indicate Emax recorded for COc1ccc2c(c1)[C@]13CCN(CC4CC4)[C@H](C2)[C@]1(O)C[C@H](C(=O)O)C3
// result 100

// query Please indicate Emax recorded for COc1ccc2c(c1)[C@]13CCN(CC4CC4)[C@H](C2)[C@]1(O)C[C@H](C#N)C3
// result 107

// query Please indicate Emax recorded for O=C(NCc1ccc(Cl)cc1)[C@@H]1C[C@]23CCN(CC4CC4)[C@H](Cc4ccc(O)cc42)[C@]3(O)C1
// result 102
